biological target: UniProtKB Q61009; assay: enhancers of DiI-HDL lipid transfer via SR-BI – cell-based, ldlA[mSR-BI] CHO, DiI fluorescence, cherry-pick, dose response (AID 602191); settings: ldlA[mSR-BI] CHO cells, 3 h, at 35 µM (top of the series);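 also: cell fluorescence from internalized DiI-labeled HDL after washing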;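 as to activation (HDL uptake increase): 0% = median of DMSO wells and 100% = twice the DMSO signal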
readout-name: activation (HDL uptake increase) (%)
Enter your answer as a number in %; do not include the unit.

compound: Cc1c(C(=O)NCCN2CCOC2=O)oc2c(F)cccc12
measurement: -0.811
--
compound: Cc1c(NC(=O)c2ccc(Br)o2)cccc1C(=O)O
measurement: 5.98
--
compound: Nc1ncnc2c1ncn2[C@@H]1O[C@H](CNCc2cccn2-c2nccs2)[C@@H](O)[C@H]1O
measurement: 10.3
--
compound: CCC(=O)Nc1ccc(C(=O)NNC(=O)c2cccs2)cc1
measurement: -6.45
--
compound: CCN(CC)CCCNC(CC(=O)Nc1cccc([N+](=O)[O-])c1)C(=O)O (centres undefined)
measurement: -2.51

For the next question, use this compound.
For the compound `CCOC(=O)[C@H]1[C@H]2COc3ccccc3[C@@H]2N2C(=O)CN(Cc3ccccc3)C(=O)[C@@]12C` , what activation (HDL uptake increase) is on record?
-9.27

* * *

target: Scavenger receptor class B member 1 (Mus musculus); test: enhancers of DiI-HDL lipid transfer via SR-BI – cell-based, ldlA[mSR-BI] CHO, DiI fluorescence, cherry-pick, dose response (AID 602191); conditions: ldlA[mSR-BI] CHO cells, 3 h, at 35 µM (top of the series);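 also: cell fluorescence from internalized DiI-labeled HDL after washing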;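 as to activation (HDL uptake increase): 0% = median of DMSO wells and 100% = twice the DMSO signal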
readout-name: activation (HDL uptake increase) (%)
Enter your answer as a number in %; do not include the unit.

Examples from the recorded data:
compound: Cc1cccc(NC(=O)CN2CCN(C(=O)C3CCCO3)CC2)c1C (stereo not given)
tested-on: Scavenger receptor class B member 1 (Mus musculus)
readout-unit: %
measurement: -0.486
//
compound: COc1ccccc1NC(=O)CCN1CCCCCC1
tested-on: Scavenger receptor class B member 1 (Mus musculus)
readout-unit: %
measurement: -12.4
//
compound: O=C(C[C@H]1C[C@H](C(=O)N2CCOCC2)[C@@]2(CCC3CCCC3)c3[nH]c4ccc(Cl)cc4c3CCN2C1=O)NCc1ccco1
tested-on: Scavenger receptor class B member 1 (Mus musculus)
readout-unit: %
measurement: -3.23
//
compound: Nc1nc(SCC(=O)OCc2ccccc2)[nH]c(=O)c1NC(=O)c1ccco1
tested-on: Scavenger receptor class B member 1 (Mus musculus)
readout-unit: %
measurement: 4.16
//
compound: Cc1cc(C)c2[nH]c(=O)c(CN(CC3CCCO3)C(=O)c3cnccn3)cc2c1 (stereo not given)
tested-on: Scavenger receptor class B member 1 (Mus musculus)
readout-unit: %
measurement: -7.36
//
compound: O=C(Cc1ccsc1)N1CCN(S(=O)(=O)c2cccc(F)c2)CC1
tested-on: Scavenger receptor class B member 1 (Mus musculus)
readout-unit: %
measurement: -4.56

For the compound `CCN(CC(=O)Nc1c(F)cccc1F)C(=O)C1CCN(S(=O)(=O)c2ccc(F)cc2)CC1` , what activation (HDL uptake increase) is on record?
11.6

For the compound `CCc1nnc(NC(=O)c2nc(S(=O)(=O)Cc3ccc(C)cc3)ncc2Cl)s1` , what activation (HDL uptake increase) is on record?
-22.7

For the compound `CN1OC[C@@H]2CN[C@H](c3cccc(-c4cc(Cl)cc(Cl)c4)c3)C[C@@H]21` , what activation (HDL uptake increase) is on record?
5.62

For the compound `O=C(COC(=O)COc1ccccc1)NCCC1=CCCCC1` , what activation (HDL uptake increase) is on record?
2.72

* * *

molecular target: Scavenger receptor class B member 1 (Mus musculus) (UniProt Q61009); assay: enhancers of DiI-HDL lipid transfer via SR-BI – cell-based, ldlA[mSR-BI] CHO, DiI fluorescence, cherry-pick, dose response (AID 602191); settings: ldlA[mSR-BI] CHO cells, DiI-HDL uptake fluorescence, 3 h;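 also: cell fluorescence from internalized DiI-labeled HDL after washing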
Sequence (Q61009 whole entry, looked up): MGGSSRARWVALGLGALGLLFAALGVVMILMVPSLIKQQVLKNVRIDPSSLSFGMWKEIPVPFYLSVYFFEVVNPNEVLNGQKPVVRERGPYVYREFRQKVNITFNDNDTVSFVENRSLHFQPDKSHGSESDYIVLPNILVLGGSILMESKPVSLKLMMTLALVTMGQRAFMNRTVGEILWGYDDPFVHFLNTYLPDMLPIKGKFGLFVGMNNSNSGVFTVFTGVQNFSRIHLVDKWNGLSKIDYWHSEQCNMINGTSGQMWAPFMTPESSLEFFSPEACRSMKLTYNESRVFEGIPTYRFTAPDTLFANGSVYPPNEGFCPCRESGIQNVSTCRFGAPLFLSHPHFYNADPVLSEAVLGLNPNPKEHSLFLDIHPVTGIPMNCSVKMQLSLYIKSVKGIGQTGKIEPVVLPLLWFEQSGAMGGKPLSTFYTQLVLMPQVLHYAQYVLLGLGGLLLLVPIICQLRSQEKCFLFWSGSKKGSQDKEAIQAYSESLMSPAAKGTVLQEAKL
The source made the active and inactive calls.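 Rule for the calls: active = fitted curve reaches 40% activation at a concentration no higher than the top valid tested dose; inconclusive = flat fit between 30% and 70% activation, or poor fit; inactive = uptake decrease, flat fit within 30% of zero, the rest.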
API: response.call in active, inactive

Would you please look over these solved cases?
sample-smiles: COc1ccc(S(=O)(=O)N(C)C[C@H]2Oc3c(NC(=O)Nc4ccc(C(F)(F)F)cc4)cccc3C(=O)N([C@H](C)CO)C[C@@H]2C)cc1
group-label: active
//
sample-smiles: CC(C)(C)NC(=O)C[C@H]1C[C@H](C(=O)N2CCOCC2)[C@@]2(CCC3CCCC3)c3[nH]c4ccc(Cl)cc4c3CCN2C1=O
group-label: inactive

Let's switch to this compound now.
Call for entry `C[C@@H]1CN([C@@H](C)CO)C(=O)Cc2cc(NC(=O)Nc3ccc(C(F)(F)F)cc3)ccc2O[C@@H]1CN(C)S(=O)(=O)c1ccc(Cl)cc1` :
active

* * *

# activation (HDL uptake increase) values compiled below
target: Scavenger receptor class B member 1 (Mus musculus); assay: enhancers of DiI-HDL lipid transfer via SR-BI – cell-based, ldlA[mSR-BI] CHO, DiI fluorescence, cherry-pick, dose response (AID 602191); conditions: ldlA[mSR-BI] CHO cells, 3 h, at 35 µM (top of the series);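 also: cell fluorescence from internalized DiI-labeled HDL after washing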;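 as to activation (HDL uptake increase): 0% = median of DMSO wells and 100% = twice the DMSO signal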
Enter your answer as a number in %; do not include the unit.

compound: CNC[C@H]1Oc2c(NS(=O)(=O)c3ccc(OC)cc3)cccc2C(=O)N([C@H](C)CO)C[C@H]1C
activation (HDL uptake increase), %: 9.97

For the compound CC(=O)NC1(C2CCCCC2=O)CCCCC1 (stereo not given) , what activation (HDL uptake increase) is on record?
-3.84

For the compound Cc1c(C(=O)N(C)C(C)c2ccncn2)oc2c(F)cccc12 (stereo not given) , what activation (HDL uptake increase) is on record?
-9.31

For the compound COc1cc(C(CCN2CCCC(C)C2)c2c(OC)cc(OC)c3c(-c4ccccc4)cc(=O)oc23)cc(OC)c1OC (stereo not given) , what activation (HDL uptake increase) is on record?
-1.55

For the compound `CC(C)c1ccc(OCC(=O)NCCO)cc1` , what activation (HDL uptake increase) is on record?
1.48

For the compound `COc1ccc2cnnc(SCC(=O)Nc3ccc(C(C)=O)cc3)c2c1OC` , what activation (HDL uptake increase) is on record?
-18.2

* * *

target: Scavenger receptor class B member 1 (Mus musculus) (UniProt Q61009); test: enhancers of DiI-HDL lipid transfer via SR-BI – cell-based, ldlA[mSR-BI] CHO, DiI fluorescence, cherry-pick, dose response (AID 602191); conditions: ldlA[mSR-BI] CHO cells, 3 h, at 35 µM (top of the series);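 also: cell fluorescence from internalized DiI-labeled HDL after washing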;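 as to activation (HDL uptake increase): 0% = median of DMSO wells and 100% = twice the DMSO signal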
readout-name: activation (HDL uptake increase) (%)
Enter your answer as a number in %; do not include the unit.

compound: C[C@@H]1CN([C@H](C)CO)C(=O)c2cc(NC(=O)Nc3ccc(C(F)(F)F)cc3)ccc2O[C@H]1CN(C)Cc1ccc(Cl)c(Cl)c1
tested-on: Scavenger receptor class B member 1 (Mus musculus) (UniProt Q61009)
measurement: -0.198

For the compound O=C1C2CCCN2C(=O)N1CCCCN1CCN(c2ccccc2)CC1 (stereo unspecified) , what activation (HDL uptake increase) is on record?
10.3

For the compound `CCOC(=O)C1CCN(S(=O)(=O)c2cc(C(=O)N3CCCCC3)ccc2OC)CC1` , what activation (HDL uptake increase) is on record?
-3.08

For the compound `COc1ccc(Oc2nc(Oc3ccc(OC)cc3)nc(Oc3ccc(OC)cc3)n2)cc1` , what activation (HDL uptake increase) is on record?
-9.22

For the compound O=C(c1ccc(Cl)cc1)C1CCCN(Cc2ccc3ncccc3c2)C1 (stereo unspecified) , what activation (HDL uptake increase) is on record?
12.3

For the compound `O=C(Cn1c(C(=O)NCCCN2CCOCC2)cc2sccc21)c1ccccc1` , what activation (HDL uptake increase) is on record?
0.656

For the compound Cc1cc(C)nc(SCC(=O)OC(C)C(=O)Nc2ccccc2)n1 (stereo unspecified) , what activation (HDL uptake increase) is on record?
-8.43

* * *

molecular target: Scavenger receptor class B member 1 (Mus musculus); test: enhancers of DiI-HDL lipid transfer via SR-BI – cell-based, ldlA[mSR-BI] CHO, DiI fluorescence, cherry-pick, dose response (AID 602191); conditions: ldlA[mSR-BI] CHO cells, DiI-HDL uptake fluorescence, 3 h;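 also: cell fluorescence from internalized DiI-labeled HDL after washing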
Activity calls are given as the source filed them.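 How the source made its calls: active means fitted curve reaches 40% activation at a concentration no higher than the top valid tested dose; inconclusive means flat fit between 30% and 70% activation, or poor fit; inactive means uptake decrease, flat fit within 30% of zero, the rest.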 Starred links: 1 amine or outer side, 2 acyl side, 3 side chain; linkers in the order of their positions; H or OH if unused. Non-standard residues stand in square brackets, D forms with d. Residues, ends and D or L forms follow the SMILES beside them. ξ: configuration not given here. X1 = CCCCCCC[C@H](O)C[C@@H](N[*:1])[C@@H](O)C(=O)[*:2]; X3 = COc1ccc(CCCC(N[*:1])C(=O)[*:2])cc1; ξThr(3R) = C[C@@H](O)C(N)C(=O)O; NMeN = CN[C@@H](CC(N)=O)C(=O)O; X2 = C/C=C(/N[*:1])C(=O)[*:2]; Dhb = C/C=C(\N)C(=O)O; Sar = CNCC(=O)O
API: response.call in active, inactive

compound: CCn1c(C(=O)O)c(CC(=O)NC2CCCCCC2)c2ccccc21
group-label: inactive
//
compound: Cc1ccc(OCC(=O)OC(C)C(=O)NC2CCCCC2C)cc1C (centres undefined)
group-label: inactive
//
compound: C/C=C1\NC(=O)[C@H](CC(N)=O)N(C)C(=O)C([C@@H](C)O)NC(=O)C(CCCc2ccc(OC)cc2)NC(=O)[C@H](C(C)C)NC(=O)/C(=C\C)NC(=O)[C@H](O)[C@@H](C[C@@H](O)CCCCCCC)NC(=O)[C@H](C)NC(=O)CN(C)C(=O)[C@H](CCC(N)=O)NC1=O (stereo partly drawn) (cyclo(A[X1][X2]V[X3][ξThr(3R)][NMeN][Dhb]Q[Sar]))
group-label: active

Call for entry `O=c1c(C=NCCN2CCNCC2)c(O)n(C2CCCCC2)c(=O)n1C1CCCCC1` :
inactive
